This collection of values is drawn from PubChem BioAssay (NCI).

- ASSAY_INFO: NCI Yeast Anticancer Drug Screen. Data for the mlh1 rad18 strain (AID 175)
- COND: S. cerevisiae mlh1 rad18 strain growth inhibition; at 50.0 µM; stronger effect = higher value
About 79,000 compounds went through this panel and 15% of them were active in at least one assay; those are over-represented in the sample as a whole.
growth inhibition by entry:
Numeric only. Scale: %

compound="C=CCC1(CO)CCCCC1O (stereo unspecified)" outcome_measure="growth inhibition" measured_value=3.2
compound="COc1cc2c(c([N+](=O)[O-])c1)NC(=O)CC(C)S2 (stereo unspecified)" outcome_measure="growth inhibition" measured_value=-3.45
compound=CCCCCC(=O)OCCOC outcome_measure="growth inhibition" measured_value=-13.7
compound=CC(C)(C)c1cc(-c2cc(C(C)(C)C)nc(N)n2)nc(N)n1 outcome_measure="growth inhibition" measured_value=-16.4
compound=Cc1c(C(=O)CC(=O)C(=O)Nc2cc(Cl)ccc2Cl)[n+](=O)c2ccccc2n1[O-] outcome_measure="growth inhibition" measured_value=1.65
compound=c1ccc2c(c1)CCc1c-2n[nH]c1-c1[nH]nc2c1CCc1ccccc1-2 outcome_measure="growth inhibition" measured_value=-5
compound="COc1ccccc1NC(=O)CC(=O)N1N=C(N(c2ccccc2)c2ccccc2)CC1c1ccccc1 (stereo unspecified)" outcome_measure="growth inhibition" measured_value=23.1
compound=CC(=O)CC(C)(C)NC(=S)Nc1ccc(O)cc1 outcome_measure="growth inhibition" measured_value=99.8

Switching to the query record.
Exercise: Query growth inhibition for N#C/C(=C1\SC(N=Nc2ccc(Cl)cc2)C(=O)N1c1ccccc1)c1nc2ccccc2[nH]1 (stereo unspecified)
Solution: -5.05
